# Test system: 628569-122-R-J1-PDC complex spheroid viability;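 also: spheroids exposed to agents for seven days before readout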
# assay summary: Anticancer human tumor 628569-122-R-J1-PDC patient-derived head and neck squamous carcinoma cell line growth inhibition [CLK]; active = viability on the fitted dose curve at most 10% of control; inactive = the rest
# conditions: second compound 3.16 µM; first compound 3.16 µM
Could you please pick one outcome from this set? active, inactive

Solved entries:
* Nc1ccccc1NC(=O)c1ccc(CNC(=O)OCc2cccnc2)cc1 + CNC(=O)c1ccc(Nc2nc(OC3CCCC3)c3c(-c4ccc5nc(C)oc5c4)c[nH]c3n2)c(OC)c1 | inactive
* COC1C=CCC(C)C(C)S(=O)(=O)NC(=O)c2ccc3c(c2)N(CC2CCC21)CC1(CCCc2cc(Cl)ccc21)CO3 (configuration not stated) + CN1CCN(c2cc(C(=O)Nc3cc4cc(-c5cnn(C)c5)ccc4cn3)ccn2)CC1 | active
* O=c1[nH]cc(F)c(=O)[nH]1 + CN1CCN(c2cc(C(=O)Nc3cc4cc(-c5cnn(C)c5)ccc4cn3)ccn2)CC1 | active

For CC(CO)NC(=O)c1cc(-c2ccc(Cl)cc2)nn(-c2cnn(C)c2)c1=O (configuration not stated) + CNC(=O)c1ccc(Nc2nc(OC3CCCC3)c3c(-c4ccc5nc(C)oc5c4)c[nH]c3n2)c(OC)c1 , which call appears in the assay record?
inactive

For C=CC(=O)N1CCN(c2nc(=O)n(-c3c(C)ccnc3C(C)C)c3nc(-c4c(O)cccc4F)c(F)cc23)C(C)C1 (configuration not stated) + CN1CCN(c2cc(C(=O)Nc3cc4cc(-c5cnn(C)c5)ccc4cn3)ccn2)CC1 , which call appears in the assay record?
active

For Nc1ccn(C2OC(CO)C(O)C2(F)F)c(=O)n1 (configuration not stated) + CNC(=O)c1ccc(Nc2nc(OC3CCCC3)c3c(-c4ccc5nc(C)oc5c4)c[nH]c3n2)c(OC)c1 , which call appears in the assay record?
inactive

For O=C(c1cc(Cc2n[nH]c(=O)c3ccccc23)ccc1F)N1CCN(C(=O)C2CC2)CC1 + CN1CCN(c2cc(C(=O)Nc3cc4cc(-c5cnn(C)c5)ccc4cn3)ccn2)CC1 , which call appears in the assay record?
active

For C=C(F)C(=O)N1CCN(c2nc(OCC3CCCN3C)nc3c2CCN(c2cccc4cccc(Cl)c24)C3)CC1CC#N (configuration not stated) + CN1CCN(c2cc(C(=O)Nc3cc4cc(-c5cnn(C)c5)ccc4cn3)ccn2)CC1 , which call appears in the assay record?
active
